# System: COLO 205 colon
# test-details: NCI tumour cell line growth inhibition, 48 h
Below, each of the compounds is paired with its reported TGI value.
Give just the number in µM; leave the unit off.

Example compounds with recorded TGI:
compound: O=C1NC(=O)/C(=C/c2ccc3nccc(-c4ccncc4)c3c2)S1
units-of-measure: µM
TGI: 3.67
--
compound: C=C1C(=O)OC2C=C(C)CC3C=C(CCC=C(C)CCC12)C(=O)O3 (stereo unspecified)
units-of-measure: µM
TGI: 115

**Query** I am curious: what TGI value has been reported for COc1cc(/C=[N+](\[O-])c2ccccc2Cl)ccc1OC(=S)S ?
**Result** 51

**Query** # input compound: CN1CCN(CCCn2c3c(sc4ncccc43)c(=O)n3nnc(-c4ccccc4)c23)CC1 ; wanted: its TGI
**Result** 9.07

**Query** Quick one: TGI for CCN(CC)CCNC(=O)C1COc2ccc(-c3cc(=O)c4ccccc4o3)cc2O1 (stereo unspecified) ?
**Result** 34

**Query** Bench note: what TGI did O=C(C#Cc1ccccc1)Nc1ccccc1CC(c1c[nH]c2ccccc12)c1c[nH]c2ccccc12 show?
**Result** 44.2

**Query** Fill blank: measured TGI of the compound CCN1CCC(O)(/C=C/c2ccc(Cl)c(Cl)c2)C(C(=O)/C=C/c2ccc(Cl)c(Cl)c2)C1 (stereo unspecified) is ____.
**Result** 1.74

**Query** Need TGI, item C#Cc1cccc(NC(=O)C2CCCCN2C(=O)CCl)c1 (stereo unspecified)
**Result** 34.7

**Query** Fill in the blank: the reported TGI of Cc1cc(NCCCCCCCCNc2cc(C)nc3cc(N(C)C)ccc23)c2ccc(N(C)C)cc2n1 is ____.
**Result** 5.5

* * *

# Tested on: LXFL 529 NSCLC
# test-details: NCI tumour cell line growth inhibition, 48 h
Examples of compounds with documented TGI follow.

Answered cases to consult:
compound: CC(C)(C)c1cc([Si](C)(C)C)c(C#N)c([Si](C)(C)C)c1
TGI: > 100 µM
//
compound: Cc1nc2cc3[nH]c4ccccc4c(=O)c3cc2s1
TGI: > 100 µM
//
compound: CC1=NN(c2ccccc2)C(=O)C1N=Nc1ccc(Br)cc1C (stereo not drawn)
TGI: > 100 µM
//
compound: COc1ccc(NC(=O)CC2SC(=Nc3ccc(Cl)cc3C)NC2=O)c([N+](=O)[O-])c1 (stereo not drawn)
TGI: > 100 µM
//
compound: O=C(NNC(=O)/C(=C/c1cccc([N+](=O)[O-])c1)NC(=O)c1ccccc1)Nc1ccc(Cl)cc1
TGI: 23.5 µM

**Query** What TGI value was documented for this compound, CCCCCCCCCCCCCC(=O)OCC1OC(=O)C(O)C1O (stereo not drawn) ?
**Result** > 100 µM

**Query** // query TGI value for entry O=C(C#Cc1ccccc1)Nc1ccccc1CC(c1c[nH]c2ccccc12)c1c[nH]c2ccccc12
**Result** 28.4 µM

**Query** Would you mind telling me what TGI value was observed for OCC1OC(NO)C(O)C(O)C1O (stereo not drawn) ?
**Result** > 100 µM

**Query** I am curious: what TGI value has been reported for COc1ccc(C2[C@@H](Cl)C(=O)N2c2ccc(OC)cc2)cc1 (stereo partly drawn) ?
**Result** > 100 µM

**Query** For the compound shown here, O=S1c2ccccc2N=C(c2cccs2)CC1c1ccccc1O (stereo not drawn) , give the reported TGI.
**Result** > 100 µM

**Query** Sample O=S1(=O)CC#CC[C@@H](CO)[C@@H](CO)CC#CC1 — what was its TGI?
**Result** > 100 µM

**Query** Could you tell me which TGI is on file for NC1=NN(c2ccccc2)C(=O)C1/C(=N\NC(=O)c1cc2ccccc2cc1O)C(=O)Nc1ccc(Cl)c(Cl)c1 (stereo not drawn) ?
**Result** > 100 µM

**Query** Query (compound): Cc1ccc(C2=C(c3ccccc3)C(O)(c3ccccc3)C(c3ccccc3)=C2c2ccc(C)cc2)cc1 ; field requested: TGI
**Result** > 100 µM

**Query** Entry under review: N#Cc1cc([N+](=O)[O-])ccc1NC(=O)C(=O)Nn1c(=S)[nH]c2ccccc2c1=O . Reported TGI?
**Result** > 100 µM

**Query** // TGI lookup, key: Nc1ccc2ncc(NCc3ccc(F)cc3)nc2c1
**Result** > 100 µM

**Query** What measured TGI goes with Cc1c2cc[n+](C)cc2c(C)c2c1[nH]c1ccc(OC(C)(C)C)cc12 ?
**Result** > 100 µM

**Query** Sample CC(C)C(N=C1CC2CCC1(C(=O)Nc1ccccc1O)C2(C)C)c1ccccc1 (stereo not drawn) — what was its TGI?
**Result** > 10 µM

**Query** I would be grateful if you could share the reported TGI for C#CCN1C(=O)CN2C(Cl)(Cl)C2(c2ccccc2)c2cc(Cl)ccc21 (stereo not drawn) .
**Result** > 100 µM
